experiment: in vitro; conditions: Saccharomyces cerevisiae
observable: fold induction

Form field fold induction, entry c1ccc2c(c1)cc1ccc3cccc4ccc2c1c34 [Benzo(a)pyrene, benzo(a)pyrene] : ≤ 1.3

---

biological target: CYP2B6 (Homo sapiens); test: in vitro; settings: pH 7.4, Km, 2B6+ clone microsomes, nonlinear regression, substrate 1–100 μM, 37°C
Sequence (P20813 whole entry): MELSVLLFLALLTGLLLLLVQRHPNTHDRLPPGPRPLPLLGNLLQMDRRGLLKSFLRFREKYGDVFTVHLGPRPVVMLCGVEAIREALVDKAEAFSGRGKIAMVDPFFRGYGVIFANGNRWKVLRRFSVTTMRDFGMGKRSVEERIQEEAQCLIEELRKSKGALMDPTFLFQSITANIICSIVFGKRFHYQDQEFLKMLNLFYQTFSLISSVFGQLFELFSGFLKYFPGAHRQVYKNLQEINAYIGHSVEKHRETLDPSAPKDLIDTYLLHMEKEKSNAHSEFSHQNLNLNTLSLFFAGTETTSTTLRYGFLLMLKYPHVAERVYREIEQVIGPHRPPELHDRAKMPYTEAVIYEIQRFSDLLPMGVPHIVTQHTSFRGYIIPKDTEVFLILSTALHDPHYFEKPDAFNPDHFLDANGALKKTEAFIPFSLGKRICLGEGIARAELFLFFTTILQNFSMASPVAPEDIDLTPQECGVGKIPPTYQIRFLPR
observable: Km (µM)
Just the number please, in µM, no unit attached.

Form field Km, entry CCOc1ccc2cc(C#N)c(=O)oc2c1 : 3.7

Every entry's value here was drawn from paper PMC5179006.
